test: refractive index (Na D-line) (dimensionless); details: 298.15 K; 101.33 kPa; Liquid; Standard Abbe refractometry
# refractive index annotations
endpoint name: refractive index

INSERT INTO assay_data (compound, test_value) VALUES
  ('CCC[N+]1(C)CCCC1.O=S(=O)([N-]S(=O)(=O)C(F)(F)F)C(F)(F)F', 1.42064),
  ('CCn1cc[n+](C)c1.O=S(=O)([O-])O [1-ethyl-3-methylimidazolium hydrogen sulfate]', 1.4971),
  ('CCOS(=O)(=O)[O-].CCn1cc[n+](C)c1 [1-ethyl-3-methylimidazolium ethyl sulfate]', 1.47921),
  ('CCn1cc[n+](C)c1.CS(=O)(=O)[O-] [1-ethyl-3-methylimidazolium methanesulfonate]', 1.49582),
  ('CCn1cc[n+](C)c1.F[B-](F)(F)F [1-ethyl-3-methylimidazolium tetrafluoroborate]', 1.41177),
  ('CCn1cc[n+](C)c1.N#CN=C=[N-] [1-ethyl-3-methylimidazolium dicyanamide]', 1.51278),
  ('CCn1cc[n+](C)c1.N#C[B-](C#N)(C#N)C#N [1-ethyl-3-methylimidazolium tetracyanoborate]', 1.44763),
  ('CCCCn1cc[n+](C)c1.O=S(=O)([N-]S(=O)(=O)C(F)(F)C(F)(F)C(F)(F)C(F)(F)F)C(F)(F)C(F)(F)C(F)(F)C(F)(F)F', 1.38807),
  ('CCn1cc[n+](C)c1.N#C[S-] [1-ethyl-3-methylimidazolium thiocyanate]', 1.55149),
  ('CCn1cc[n+](C)c1.O=S(=O)([N-]S(=O)(=O)C(F)(F)F)C(F)(F)F', 1.42309);
